biological target: UniProt:C7FF04
Hi there, I'd appreciate the recorded Ki for every entry that follows.

CN1C(=O)/C(=C/c2ccc(O)cc2O)SC1=S: 0.047 µM

# next compound below
Note to self: Ki recorded for "CN1C(=O)/C(=C/c2ccc(O)cc2)SC1=S" was 6.2 µM

###

molecular target: mushroom tyrosinase; test: Mushroom tyrosinase inhibition assay (dopachrome, 475 nm); assay type: biochemical; settings: substrate L-dopa; mushroom tyrosinase; read-out: IC50 (Mean ± SEM, µM) L-Dopa
Hi there, I'd appreciate the recorded IC50 for every entry that follows.
One number for each entry, in µM.

COc1ccc(/C=C2\SC(=S)N(C)C2=O)cc1O: 13.8

Batch request: IC50 per item, same order as input.
1. CN1C(=O)/C(=C/c2ccc(O)cc2)SC1=S
2. CN1C(=O)/C(=C/c2ccc(O)cc2O)SC1=S

Key:
1: 17.6; 2: 1.12

Note to self: IC50 recorded for "CN1C(=O)/C(=C/c2ccc(O)c(O)c2)SC1=S" was 6.18

###

target: mushroom tyrosinase; assay: Mushroom tyrosinase inhibition assay (dopachrome, 475 nm); type: biochemical; conditions: substrate L-tyrosine; mushroom tyrosinase; read-out: IC50 (Mean ± SEM, µM) L-Tyrosine
Checkbox rule: IC50 lower than 4 µM = 1; IC50 not lower than 4 µM = -1.

Exercise: Determine whether this molecule shows IC50 lower than 4 µM (ties excluded): "CN1C(=O)/C(=C/c2ccc(O)c(O)c2)SC1=S"
Key: 1

Exercise: Determine whether this molecule shows IC50 lower than 4 µM (ties excluded): "COc1cc(/C=C2\SC(=S)N(C)C2=O)cc(OC)c1O"
Key: -1

Exercise: Determine whether this molecule shows IC50 lower than 4 µM (ties excluded): "CN1C(=O)/C(=C/c2cc(Br)c(O)c(Br)c2)SC1=S"
Key: -1

###

molecular target: mushroom tyrosinase (Agaricus bisporus); experiment: Kinetic study of mushroom tyrosinase inhibition (Lineweaver–Burk and Dixon plots); format: biochemical; settings: substrate L-dopa 0.5–16 mM
Sequence (C7FF04 1-392): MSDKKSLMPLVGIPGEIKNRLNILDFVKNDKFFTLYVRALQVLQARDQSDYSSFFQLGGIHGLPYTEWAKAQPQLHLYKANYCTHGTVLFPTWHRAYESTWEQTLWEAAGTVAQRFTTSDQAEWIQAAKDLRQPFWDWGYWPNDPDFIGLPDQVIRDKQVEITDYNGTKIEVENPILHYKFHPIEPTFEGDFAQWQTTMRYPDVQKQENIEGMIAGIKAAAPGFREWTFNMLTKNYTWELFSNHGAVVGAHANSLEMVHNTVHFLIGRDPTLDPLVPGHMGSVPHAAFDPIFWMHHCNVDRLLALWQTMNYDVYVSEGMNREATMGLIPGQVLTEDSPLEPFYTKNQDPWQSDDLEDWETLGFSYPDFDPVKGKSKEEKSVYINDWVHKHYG
ENDPOINT LABEL: type of tyrosinase inhibition (Lineweaver–Burk plots)

COc1ccc(/C=C2\SC(=S)N(C)C2=O)cc1O: mixed-type inhibitors
CN1C(=O)/C(=C/c2ccc(O)cc2O)SC1=S: competitive inhibitors
CN1C(=O)/C(=C/c2ccc(O)c(O)c2)SC1=S: mixed-type inhibitors
CN1C(=O)/C(=C/c2ccc(O)cc2)SC1=S: competitive inhibitors

###

Biological target: mushroom tyrosinase
Experiment: Mushroom tyrosinase inhibition assay (dopachrome, 475 nm)
Assay type: biochemical
Conditions: substrate L-dopa; mushroom tyrosinase; read-out: IC50 (Mean ± SEM, µM) L-Dopa
Protocol: The ability of the BMTTZD analogs to inhibit mushroom tyrosinase was evaluated in the presence of L-dopa and L-tyrosine as previously described.
Hi there, I'd appreciate the recorded IC50 for every entry that follows.

Example compounds with recorded IC50:
COc1cc(/C=C2\SC(=S)N(C)C2=O)ccc1O: > 200 µM
COc1cc(/C=C2\SC(=S)N(C)C2=O)cc(OC)c1O: > 200 µM
CN1C(=O)/C(=C/c2ccc(O)c(Br)c2)SC1=S: > 200 µM

# next compound below
Note to self: IC50 recorded for "CN1C(=O)/C(=C/c2cc(Br)c(O)c(Br)c2)SC1=S" was > 200 µM

###

Hi there, I'd appreciate the recorded IC50 for every entry that follows.
biological target: mushroom tyrosinase; experiment: Mushroom tyrosinase inhibition assay (dopachrome, 475 nm); assay type: biochemical; details: substrate L-tyrosine; mushroom tyrosinase; read-out: IC50 (Mean ± SEM, µM) L-Tyrosine
Answers are plain numbers, in µM.

Example compounds with recorded IC50:
CN1C(=O)/C(=C/c2ccc(O)cc2)SC1=S [Analog 1]: 3.82
CN1C(=O)/C(=C/c2ccc(O)cc2O)SC1=S [Analog 3]: 0.08
CN1C(=O)/C(=C/c2ccc(O)c(Br)c2)SC1=S [Analog 7]: 33.2
COc1ccc(/C=C2\SC(=S)N(C)C2=O)cc1O [Analog 5]: 3.6

# next compound below
Note to self: IC50 recorded for COc1cc(/C=C2\SC(=S)N(C)C2=O)ccc1O [Analog 4] was 54.8
